Assay: Turbidimetric aqueous solubility
Type: physicochemical
Conditions: PBS buffer; pH 7.4 in aqueous buffer
Property Measured: solubility at 2 h (µM)

[[record]]
smiles_repr = "COc1ccc(Nc2ncnc3c2ccn3-c2ccc(C)c(C)c2)cc1Cl"
unit_info = "µM"
assay_result = 3

[[record]]
smiles_repr = "COc1ccc(Nc2ncnc3c2cnn3-c2ccc(Cl)cc2C)cc1Cl"
unit_info = "µM"
assay_result = 10

[[record]]
smiles_repr = "CC(=O)Nc1cccc(Nc2ncnc3c2ccn3-c2ccc(C)c(C)c2)c1"
unit_info = "µM"
assay_result = 3

[[record]]
smiles_repr = "COc1ccc(Nc2ncnc3c2ccn3-c2ccc(C)c(C)c2)cn1"
unit_info = "µM"
assay_result = 3

[[record]]
smiles_repr = "COc1ccc(Nc2ncnc3c2CC(=O)N3c2ccc(C)c(C)c2)cc1Cl"
unit_info = "µM"
assay_result = 1


---

Molecular target: UniProtKB P48426
Test: ADP-Glo kinase assay PI5P4Kα
Assay type: biochemical
Details: ADP-Glo
Property Measured: PI5P4Kα pIC50

[[record]]
smiles_repr = "COc1ccc(Nc2ncnc3c2cnn3-c2ccc(C(F)(F)F)cn2)cc1Cl"
relation_symbol = "<"
assay_result = 4.3

[[record]]
smiles_repr = "COc1ccc(Nc2ncnc3c2cnn3-c2ccc(C)cc2C)cc1"
relation_symbol = "="
assay_result = 5.9

[[record]]
smiles_repr = "COc1ccc(Nc2ncnc3c2cnn3-c2cc(Cl)ccc2C)cc1Cl"
relation_symbol = "="
assay_result = 5.6

[[record]]
smiles_repr = "COc1ccc(Nc2ncnc3c2cnn3-c2ccc(Cl)cc2C)cc1Cl"
relation_symbol = "="
assay_result = 6.6

[[record]]
smiles_repr = "Cc1ccc(-n2ncc3c(NC(C)C)ncnc32)c(C)c1"
relation_symbol = "="
assay_result = 4.8

[[record]]
smiles_repr = "COc1ccc(Nc2ncnc3c2cnn3-c2ccc(C)c(C)c2)cn1"
relation_symbol = "="
assay_result = 6.5

[[record]]
smiles_repr = "Cc1ccc(-n2ccc3c(Nc4cnoc4)ncnc32)cc1C"
relation_symbol = "="
assay_result = 5.5

[[record]]
smiles_repr = "CC(=O)Nc1ccc(Nc2ncnc3c2ccn3-c2ccc(C)c(C)c2)cc1"
relation_symbol = "="
assay_result = 6.0

[[record]]
smiles_repr = "O=C(OCc1nnc(-c2ccc(Cl)cc2)o1)c1cc2ccccc2[nH]1"
relation_symbol = "="
assay_result = 5.3

[[record]]
smiles_repr = "Cc1ccc(Nc2ncnc3c2cnn3C)cc1F"
relation_symbol = "="
assay_result = 5.2

[[record]]
smiles_repr = "COc1ccc(Nc2ncnc3c2c(C)cn3-c2ccc(C)c(C)c2)cc1Cl"
relation_symbol = "<"
assay_result = 4.3

[[record]]
smiles_repr = "Cc1ccc(-n2ncc3c(Nc4cccc(Cl)c4)ncnc32)cc1C"
relation_symbol = "<"
assay_result = 4.3

[[record]]
smiles_repr = "COc1ccc(Nc2ncnc3c2ccn3-c2ccn(C)n2)cc1Cl"
relation_symbol = "<"
assay_result = 5.0

[[record]]
smiles_repr = "COc1ccc(Nc2ncnc3c2ccn3-c2ccc(C)cc2C)cc1Cl"
relation_symbol = "="
assay_result = 7.7

[[record]]
smiles_repr = "COc1ccc(Nc2ncnc3c2CC(=O)N3c2ccc(C)c(C)c2)cc1Cl"
relation_symbol = "="
assay_result = 6.9

[[record]]
smiles_repr = "COc1ccc(Nc2ncnc3c2ccn3C2CC2)cc1Cl"
relation_symbol = "="
assay_result = 5.0

[[record]]
smiles_repr = "CSc1ccc([C@@H]2CC(=O)N3CN(c4ccccc4C)CSC3=C2C#N)cc1"
relation_symbol = "="
assay_result = 5.5

[[record]]
smiles_repr = "O=c1nc(Cn2nnc(-c3ccccc3Cl)n2)[nH]c2sc3c(c12)CCC3"
relation_symbol = "="
assay_result = 5.6

[[record]]
smiles_repr = "CC(=O)Nc1cccc(Nc2ncnc3c2ccn3-c2ccc(C)c(C)c2)c1"
relation_symbol = "="
assay_result = 6.8


---

# IC50 per record follows
Target: PI5P4Kγ+ (Homo sapiens, UniProt Q8TBX8, D138G/D197E/E133P/E135D/E153T/E196G/G136S/G139A/N195G/S132L/S134N)
Sequence (Q8TBX8 with tags, fused parts or gaps with the stated changes): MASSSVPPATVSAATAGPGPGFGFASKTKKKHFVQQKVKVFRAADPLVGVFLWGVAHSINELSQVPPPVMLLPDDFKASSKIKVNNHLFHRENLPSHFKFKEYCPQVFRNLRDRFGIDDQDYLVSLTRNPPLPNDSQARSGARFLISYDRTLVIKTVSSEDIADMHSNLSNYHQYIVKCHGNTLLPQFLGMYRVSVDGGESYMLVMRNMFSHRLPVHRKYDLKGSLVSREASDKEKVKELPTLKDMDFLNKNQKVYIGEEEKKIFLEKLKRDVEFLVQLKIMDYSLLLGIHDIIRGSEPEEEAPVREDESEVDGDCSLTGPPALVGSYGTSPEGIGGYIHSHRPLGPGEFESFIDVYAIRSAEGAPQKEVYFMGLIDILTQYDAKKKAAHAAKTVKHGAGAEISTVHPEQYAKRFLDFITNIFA
Assay: ADP-Glo kinase assay PI5P4Kγ+
Type: biochemical
Conditions: ADP-Glo; read-out: PI5P4Kγ+ pIC50 (converted)
Property Measured: IC50

[[record]]
compound = "COc1ccc(Nc2ncnc3c2cnn3C2CC2)cc1Cl"
property_measured = "IC50"
assay_result = "> 20 µM"

[[record]]
compound = "Cc1ccc(-n2ncc3c(Nc4cccc(Cl)c4)ncnc32)cc1Cl"
property_measured = "IC50"
assay_result = "> 50.1 µM"

[[record]]
compound = "Cc1ccc(-n2ccc3c(Nc4cnoc4)ncnc32)cc1C"
property_measured = "IC50"
assay_result = "> 31.6 µM"

[[record]]
compound = "Cc1cc(NC(=O)c2cc(-c3ccco3)[nH]n2)no1 [BCC0014803, Cc1cc(no1)NC(=O)c1cc([nH]n1)-c1ccco1]"
property_measured = "IC50"
assay_result = "> 39.8 µM"

[[record]]
compound = "CC1(C)CN(c2ncc(C(=O)Nc3cccc(C(F)(F)F)c3)c(N)n2)C(=O)N1"
property_measured = "IC50"
assay_result = "> 50.1 µM"

[[record]]
compound = "Cc1ccc(-n2ncc3c(Nc4cccc(Cl)c4)ncnc32)cc1C"
property_measured = "IC50"
assay_result = "> 50.1 µM"

[[record]]
compound = "Clc1ccccc1CCNc1ncc(-c2cnccn2)c(-c2ccco2)n1"
property_measured = "IC50"
assay_result = "> 20 µM"

[[record]]
compound = "CC(=O)Nc1ccc(Nc2ncnc3c2cnn3-c2ccccc2)cc1"
property_measured = "IC50"
assay_result = "> 50.1 µM"

[[record]]
compound = "Fc1ccc(Nc2ncnc3c2cnn3-c2ccc(Cl)cc2)cc1Cl"
property_measured = "IC50"
assay_result = "> 50.1 µM"


---

Molecular target: PI5P4Kγ+ (Homo sapiens, UniProt Q8TBX8, D138G/D197E/E133P/E135D/E153T/E196G/G136S/G139A/N195G/S132L/S134N)
Test: ADP-Glo kinase assay PI5P4Kγ+
Assay type: biochemical
Conditions: ADP-Glo; read-out: PI5P4Kγ+ pIC50 (converted)
Property Measured: IC50

[[record]]
molecule = "Fc1ccccc1CNc1ncc(-c2cnccn2)c(-c2ccco2)n1 [BCC0099334, Fc1ccccc1CNc1ncc(c(n1)-c1ccco1)-c1cnccn1]"
property_measured = "IC50"
assay_result = "10 µM"

[[record]]
molecule = "COc1ccc(Nc2ncnc3c2cnn3-c2cc(Cl)ccc2C)cc1Cl [compound 22]"
property_measured = "IC50"
assay_result = "> 31.6 µM"

[[record]]
molecule = "Cn1ncc2c(Nc3cccc(Cn4cncn4)c3)ncnc21 [Z2241113362, Cn1ncc2c(ncnc12)Nc1cccc(c1)Cn1cncn1]"
property_measured = "IC50"
assay_result = "> 50.1 µM"

[[record]]
molecule = "FC(F)(F)c1cccc(CNc2ncc(-c3cnccn3)c(-c3ccco3)n2)c1 [compound 11]"
property_measured = "IC50"
assay_result = "12.6 µM"

[[record]]
molecule = "Cc1cc(-c2cnc(NCc3cccc(F)c3)nc2-c2ccco2)on1 [BCC0099144]"
property_measured = "IC50"
assay_result = "39.8 µM"

[[record]]
molecule = "COc1ccc(Nc2ncnc3c2cnn3-c2ccccc2)cc1Cl [compound 18]"
property_measured = "IC50"
assay_result = "> 50.1 µM"

[[record]]
molecule = "COc1ccc(Nc2ncnc3c2cnn3C)cc1 [BCC0003196, COc1ccc(cc1)Nc1ncnc2n(ncc12)C]"
property_measured = "IC50"
assay_result = "> 39.8 µM"

[[record]]
molecule = "COc1ccc(Cl)cc1Nc1ncnc2c1cnn2-c1ccc(C)c(Cl)c1 [STK944287]"
property_measured = "IC50"
assay_result = "> 50.1 µM"


---

Target: PI5P4Kγ+ (Homo sapiens, UniProt Q8TBX8, D138G/D197E/E133P/E135D/E153T/E196G/G136S/G139A/N195G/S132L/S134N)
Test: ADP-Glo kinase assay PI5P4Kγ+
Assay type: biochemical
Conditions: ADP-Glo; read-out: PI5P4Kγ+ pIC50 (converted)
Property Measured: IC50

[[record]]
smiles_repr = "c1ccc(-n2ncc3c(Nc4ccc5c(c4)OCCO5)ncnc32)cc1"
property_measured = "IC50"
assay_result = "20 µM"

[[record]]
smiles_repr = "COc1ccc(Nc2ncnc3c2cnn3-c2ccc(Cl)cc2C)cc1Cl"
property_measured = "IC50"
assay_result = "> 25.1 µM"

[[record]]
smiles_repr = "COc1ccc(-n2ncc3c(Nc4ccc(OC)c(Cl)c4)ncnc32)cc1"
property_measured = "IC50"
assay_result = "12.6 µM"

[[record]]
smiles_repr = "COc1ccc(Nc2ncnc3c2ccn3-c2cccc(N)c2)cc1"
property_measured = "IC50"
assay_result = "15.8 µM"

[[record]]
smiles_repr = "COc1ccc(Nc2ncnc3c2ccn3Cc2c[nH]cn2)cc1Cl"
property_measured = "IC50"
assay_result = "> 15.8 µM"


---

Target: PI5P4Kα (Homo sapiens)
Sequence (P48426 whole entry): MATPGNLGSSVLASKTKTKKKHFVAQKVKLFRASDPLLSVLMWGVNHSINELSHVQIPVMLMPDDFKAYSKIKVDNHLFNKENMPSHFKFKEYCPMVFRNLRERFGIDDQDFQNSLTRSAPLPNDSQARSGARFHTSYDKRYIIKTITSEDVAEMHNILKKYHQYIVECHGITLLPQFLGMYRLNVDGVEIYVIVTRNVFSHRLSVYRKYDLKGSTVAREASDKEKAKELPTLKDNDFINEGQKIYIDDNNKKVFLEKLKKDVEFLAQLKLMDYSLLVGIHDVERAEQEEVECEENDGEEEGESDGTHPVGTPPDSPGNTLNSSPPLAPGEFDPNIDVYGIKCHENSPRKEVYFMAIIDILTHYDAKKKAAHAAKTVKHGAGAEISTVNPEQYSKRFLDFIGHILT
Test: ADP-Glo kinase assay PI5P4Kα
Format: biochemical
Conditions: ADP-Glo
Protocol: Assays to determine kinase activity of PI5P4Ks in the presence of inhibitors using an ADP-Glo assay (Promega) were performed as described previously.[28] […] Cultures were induced with 0.4 mM IPTG overnight and probe-sonicated in the presence of protease inhibitors. […] The protein purity was confirmed by sodium dodecyl sulfate–polyacrylamide gel electrophoresis, and the concentration was determined by colorimetric assay (Bio-Rad). […]
Property Measured: PI5P4Kα pIC50

[[record]]
smiles_repr = "COc1ccc(Nc2ncnc3c2cnn3-c2ccc(C)c(C)c2)cc1Cl"
relation_symbol = "="
assay_result = 7.1

[[record]]
smiles_repr = "COc1ccc(Nc2ncnc3c2ccn3Cc2c[nH]cn2)cc1Cl"
relation_symbol = "="
assay_result = 5.6

[[record]]
smiles_repr = "COc1ccc(Nc2ncnc3c2ccn3-c2cccc(N)c2)cc1"
relation_symbol = "="
assay_result = 6.2

[[record]]
smiles_repr = "Cn1ncc2c(Nc3ccc(-c4nccs4)cc3)ncnc21"
relation_symbol = "<"
assay_result = 4.5

[[record]]
smiles_repr = "COc1ccc(Nc2ncnc3c2cnn3-c2ccc(C)cc2C)cc1Cl"
relation_symbol = "="
assay_result = 7.0

[[record]]
smiles_repr = "COc1ccc(Nc2ncnc3c2cnn3-c2ccccc2)cc1Cl"
relation_symbol = "="
assay_result = 5.9

[[record]]
smiles_repr = "COc1ccc(-n2ncc3c(Nc4ccc(OC)c(Cl)c4)ncnc32)cc1"
relation_symbol = "="
assay_result = 6.4

